# reported change of melting temperature, mutant - wild type (higher = more stable); entries follow
B1: Cytosolic beta-glucosidase, O61594 (parent)
chain: MKLLVVLSLVAVACNASIVRQQRRFPDDFLFGTATASYQIEGAWDEDGKGENIWDYMVHNTPEVIRDLSNGDIAADSYHNYKRDVEMMRELGLDAYRFSLSWARILPTGMANEVNPAGIAFYNNYIDEMLKYNITPLITLYHWDLPQKLQELGGFANPLISDWFEDYARVVFENFGDRVKMFITFNEPREICFEGYGSATKAPILNATAMGAYLCAKNLVTAHAKAYYLYDREFRPVQGGQCGITISVNWFGPATPTPEDEMAAELRRQGEWGIYAHPIFSAEGGFPKELSDKIAEKSAQQGYPWSRLPEFTEEEKAFVRGTSDLIGVNHYTAFLVSATERKGPYPVPSLLDDVDTGSWADDSWLKSASAWLTLAPNSIHTALTHLNNLYNKPVFYITENGWSTDESRENSLIDDDRIQYYRASMESLLNCLDDGINLKGYMAWSLMDNFEWMEGYIERFGLYEVDFSDPARTRTPRKAAFVYKHIIKHRVVDYEYEPETMVMTIDEGH

variants of: B1; details: Spodoptera frugiperda; pH 6; Thermal; Differential Scanning Fluorimetry; Potassium phosphate 10mM; transition: 2; structure 5CG0; whole UniProt chain shown
measurement-label: change of melting temperature, mutant - wild type (higher = more stable) (°C)

mutation-list	experimental-value
A263F	-4.4
Y420A	-7.8
L350A	-1.2
S337F	-4.58
S358A	-3
M262F	0
E265A	-0.1
E261A	1.2
L389A	1.6
D260A	-4.2
V336F	-11
F251A	-2.6
S247A	0.3
K366A	-4
N249A	-6
L100A	2.6
Y390A	0.1
F334A	-2.5
N391A	1
L335A	-5
